// reported TGI for each item listed
- Tested on: SF-539 CNS
- run-description: NCI tumour cell line growth inhibition, 48 h

Look over these answered cases.
compound-structure: [O]=[W](=[O])([OH])[OH]
result: > 100 µM
--
compound-structure: Cc1nc2ccc(S(=O)(=O)Nc3ccccc3Cl)cc2c(=O)n1NC(=O)CNc1ccccc1Cl
result: > 100 µM
--
compound-structure: Cc1ccc(-c2n[nH]c(=O)n2N2C(=O)C=CC2=O)cc1
result: > 100 µM

Input COc1ccc2c(c1)c(-c1nc(-c3cn(C)c4ncccc34)cs1)cn2CCCCN1CCOCC1 . Output TGI: 3.02 µM

Input CN(C)C=Nc1c(Br)cc(Br)c2nonc12 . Output TGI: > 100 µM

Input CNC(=O)OCc1cc2ccncc2c2c1[nH]c1ccccc12 . Output TGI: > 100 µM

* * *

- System: UACC-257 melanoma
- run-description: NCI tumour cell line growth inhibition, 48 h
Where a SMILES comes first, the peptide text is derived from it. The star is where a group is joined. Boc = CC(C)(C)OC(=O)*; OBn = c1ccc(CO*)cc1
// reported TGI for each item listed

Look over these answered cases.
molecule: CCC(C)C(NC(=O)c1c2ccccc2nc2ccccc12)C(=O)O (stereo not given)
TGI: > 100 µM
--
molecule: CC(C)C(NC(=O)CNC(=O)C1CCCN1C(=O)C(NC(=O)OC(C)(C)C)C(C)C)C(=O)NCC(=O)OCc1ccccc1 (stereo not given) (Boc-VPGVG-OBn; configuration not given here)
TGI: > 100 µM
--
molecule: O=C(/C=C/c1cccs1)c1ccc(Cl)s1
TGI: > 100 µM

Input O=C1C(Cl)C(c2cccc(Br)c2)N1c1c(O)c(Cl)cc(Br)c1Cl (stereo not given) . Output TGI: 43.9 µM

* * *

- System: MDA-MB-435
- run-description: NCI tumour cell line growth inhibition, 48 h
// reported TGI for each item listed

Param item: O=C1C(Cl)=C(Nc2cccc(O)c2)C(=O)N1c1ccc(Cl)cc1Cl ; param system: MDA-MB-435; output TGI: > 100 µM

Param item: CC(=O)NC(CCCOC(C)=O)C(=O)NC(CCCOC(C)=O)C(=O)NC(CCCOC(C)=O)C(=O)NC(Cc1ccc([N+](=O)[O-])cc1)C(=O)NCC(=O)OCc1ccccc1 (stereo not given) ; param system: MDA-MB-435; output TGI: > 100 µM

Param item: [O]=[W](=[O])([OH])[OH] ; param system: MDA-MB-435; output TGI: > 100 µM

Param item: Cc1ccc(Nc2cc(=O)[nH]c(=O)[nH]2)cc1CS ; param system: MDA-MB-435; output TGI: > 100 µM

Param item: CCOC(=O)c1nc2cc(C(F)(F)F)ccc2nc1Oc1ccc(C(=O)OC)cc1 ; param system: MDA-MB-435; output TGI: > 100 µM

* * *

// reported TGI for each item listed
- Tested on: MCF7 breast
- run-description: NCI tumour cell line growth inhibition, 48 h

Look over these answered cases.
compound: COc1cc2c(cc1O)-c1c(OC)c(O)cc3c1C(C2)N(C)CC3 (centres undefined)
target-under-test: MCF7 breast
result: > 100 µM
//
compound: CC(C(=O)N1C(=O)N(C(=O)[C@H](C)C(O)c2ccccc2)[C@H](c2ccccc2)[C@H]1c1ccccc1)[C@@H](O)c1ccccc1 (some centres undefined)
target-under-test: MCF7 breast
result: > 100 µM
//
compound: Cc1cc2c(=O)c3ccccc3oc2c(C#N)c1C
target-under-test: MCF7 breast
result: > 100 µM

Input CN(C)C(=O)C(F)(F)C(c1ccc(C(F)(F)F)cc1)C1C(=O)N(C)C(=O)N(C)C1=O (centres undefined) . Output TGI: > 100 µM

Input CCNC(=O)c1ccc2c(c1)nc(-c1ccc(Cl)cc1)n2-c1cc(C(C)(C)C)[nH]n1 . Output TGI: 10.5 µM
